# Target of assay: GOPC, Q9HD26
# Test summary: holdup assay
# Parameters: key: below the threshold = too weak to quantify, mostly under pKd 3.1 to 4
# Condition details: plain residues with an end cap or a label only (N-terminal biotin on a linker: ttds)
Reported property: pKd

{"Binder": "RHTTSTETAV [HPV30-E6, P36809]", "Result number": 4.14}
{"Binder": "RPLPRKVSQL [DOCK4, Q8N1I0]", "Result number": 4.03}
{"Binder": "QRQARSETLV [HPV59-E6, Q81964]", "Result number": 3.92}
{"Binder": "KKYVDAETSL [SLC4A7, Q9Y6M7]", "Result number": 4.09}
{"Binder": "SGSRPSATVV [HPV73-E6, Q82005]", "Result number": 3.59}

Sourced from paper PMC9482650
